Assay: Antiobesity activity in mouse 3T3L1 cells assessed as suppression of DIM-stimulated lipid accumulation at 4 uM after 7 days by Oil Red O staining method relative to control
Assay type: functional
Settings: 3T3-L1, 168 h
quantity_kind: inhibition at 4 µM (%)
Only the number, expressed in %, is required.

Would you please look over these solved cases?
# compound, endpoint_value
measured = [
    ("CCCCCCCCCCOC(=O)/C=C/c1ccc(O)c(O)c1", 71),
    ("O=C(/C=C/c1ccc(O)c(O)c1)OCCCCCCc1ccccc1", 46),
    ("CCCCCCCCCCOC(=O)/C=C/c1cc(O)c(O)c(O)c1", 84),
    ("CC(C)=CCC/C(C)=C/COC(=O)/C=C/c1ccc(O)c(O)c1 [GERANYL CAFFEATE]", 20),
]

Turning now to a further record.
Dear colleague, please send me the reported inhibition at 4 µM for O=C(/C=C/c1ccc(O)c(O)c1)OCCc1ccccc1 when you can.
11
